Test system: 941728-121-R-J1-PDC complex spheroid viability
Assay: Anticancer human tumor 941728-121-R-J1-PDC patient-derived lung adenocarcinoma cell line growth inhibition [RAS]
Conditions: curve of first compound; second compound 0.316 µM
PROPERTY: IC50

>  <MOLECULE>
CCC(CC)c1cc(NC2CCC(N)C2)n2nccc2n1 (configuration not stated) + C=CC(=O)N1CCN(c2nc(OCC3CCCN3C)nc3c(F)c(-c4nc(N)cc(C)c4C(F)(F)F)c(Cl)cc23)C(C)C1

>  <MEASURED_RESULT>
< 31.6 nM

$$$$

// IC50 lookup, key: Cc1nc(N2CCC3(CC2)COC(C)C3N)c(CO)nc1Sc1ccnc(N)c1Cl (configuration not stated) + C#Cc1c(F)ccc2cc(O)cc(-c3ncc4c(N5CC6CCC(C5)N6)nc(OCC56CCCN5CC(F)C6)nc4c3F)c12
< 31.6 nM

For the molecule CC(=O)OC12COC1CC(O)C1(C)C(=O)C(O)C3=C(C)C(OC(=O)C(O)C(NC(=O)OC(C)(C)C)c4ccccc4)CC(O)(C(OC(=O)c4ccccc4)C21)C3(C)C (configuration not stated) + C=CC(=O)N1CCN(c2nc(OCC3CCCN3C)nc3c(F)c(-c4nc(N)cc(C)c4C(F)(F)F)c(Cl)cc23)C(C)C1 , what IC50 is on record?
< 31.6 nM

# IC50 lookup, item NC1c2ccccc2OC12CCN(c1cnc3c(N4CCCc5ncccc54)n[nH]c3n1)CC2 (configuration not stated) + C#Cc1c(F)ccc2cc(O)cc(-c3ncc4c(N5CC6CCC(C5)N6)nc(OCC56CCCN5CC(F)C6)nc4c3F)c12
< 31.6 nM

---

System: 941728-121-R-J1-PDC complex spheroid viability
Assay: Anticancer human tumor 941728-121-R-J1-PDC cell line growth inhibition [RAS]; active = viability on the fitted dose curve at most 10% of control; inactive = the rest;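 further: spheroids exposed to compounds for 7 days before readout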
Conditions: second compound 0.0316 µM; first compound 0.1 µM
Respond with a class label; see active, inactive

>  <COMPOUND>
CC(C)n1nc(-c2ccc3oc(N)nc3c2)c2c(N)ncnc21 + C=CC(=O)N1CCN(c2nc(OCC3CCCN3C)nc3c(F)c(-c4nc(N)cc(C)c4C(F)(F)F)c(Cl)cc23)C(C)C1

>  <CLASS_ASSIGNMENT>
active

$$$$

Please share the test call associated with C=CC(=O)Nc1cc(Nc2nccc(-c3cn(C)c4ccccc34)n2)c(OC)cc1N(C)CCN(C)C + C=CC(=O)N1CCN(c2nc(OCC3CCCN3C)nc3c(F)c(-c4nc(N)cc(C)c4C(F)(F)F)c(Cl)cc23)C(C)C1 .
inactive

Entry Nc1ccn(C2OC(CO)C(O)C2(F)F)c(=O)n1 (configuration not stated) + C#Cc1c(F)ccc2cc(O)cc(-c3ncc4c(N5CC6CCC(C5)N6)nc(OCC56CCCN5CC(F)C6)nc4c3F)c12 : call = ?
inactive

Short answer needed: outcome of this test for Cc1nc(N2CCC3(CC2)COC(C)C3N)c(CO)nc1Sc1ccnc(N)c1Cl (configuration not stated) + C=CC(=O)N1CCN(c2nc(OCC3CCCN3C)nc3c(F)c(-c4nc(N)cc(C)c4C(F)(F)F)c(Cl)cc23)C(C)C1 ?
inactive

Field: outcome | Entry: NC1c2ccccc2OC12CCN(c1cnc3c(N4CCCc5ncccc54)n[nH]c3n1)CC2 (configuration not stated) + C#Cc1c(F)ccc2cc(O)cc(-c3ncc4c(N5CC6CCC(C5)N6)nc(OCC56CCCN5CC(F)C6)nc4c3F)c12
inactive

Tell me the recorded outcome of this test for CC1(O)CCCC1n1c(=O)c(C(F)F)cc2cnc(NC3CCN(S(C)(=O)=O)CC3)nc21 (configuration not stated) + C#Cc1c(F)ccc2cc(O)cc(-c3ncc4c(N5CC6CCC(C5)N6)nc(OCC56CCCN5CC(F)C6)nc4c3F)c12 .
inactive

Look up the recorded call for CC(C)NCC(C(=O)N1CCN(c2ncnc3c2C(C)CC3O)CC1)c1ccc(Cl)cc1 (configuration not stated) + C#Cc1c(F)ccc2cc(O)cc(-c3ncc4c(N5CC6CCC(C5)N6)nc(OCC56CCCN5CC(F)C6)nc4c3F)c12 in this test.
inactive
